Molecular target: human B1R receptor (Homo sapiens)
Construct: host or cells: CHO K1 cells (Chinese hamster ovary), stably transfected
Sequence (P46663 whole entry): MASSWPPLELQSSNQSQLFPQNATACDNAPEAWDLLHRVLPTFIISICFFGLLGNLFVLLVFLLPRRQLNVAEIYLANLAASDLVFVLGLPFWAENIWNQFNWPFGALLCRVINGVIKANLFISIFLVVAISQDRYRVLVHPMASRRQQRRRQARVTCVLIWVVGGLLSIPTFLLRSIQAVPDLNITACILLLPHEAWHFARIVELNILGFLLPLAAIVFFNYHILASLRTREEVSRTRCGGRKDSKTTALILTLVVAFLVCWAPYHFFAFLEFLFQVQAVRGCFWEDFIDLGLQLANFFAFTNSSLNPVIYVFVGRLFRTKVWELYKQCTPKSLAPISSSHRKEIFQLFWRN
Experiment: Functional study on the bradykinin receptor 1 (B1R), FLIPR Ca2+ assay, hB1R cells
Type: cell-based
Details: CHO-K1, test substance 10 μM, agonist Lys-Des-Arg9-bradykinin 0.5 nM, % inhibition compared with the maximum achievable inhibition, read-out: B1R Antagonism, human [10 μM] % Inhibition
Give measured inhibition at 10 µM for each item. Keep answers brief.
Write the value in % as a bare number.

Need inhibition at 10 µM, item Cc1cc(C)c(S(=O)(=O)N2Cc3ccccc3CC2COCC(=O)NCc2cccc(N3CCN(C)CC3)c2)c(C)c1 (stereo not drawn) [Example 33]
82.7

Same lookup for COc1cc(C)c(S(=O)(=O)N2CCCCC2COCC(=O)Nc2cc(-c3ccccc3)[nH]n2)c(C)c1 (stereo not drawn) [Example 536] , please.
63.1

Please do the same for Cc1cc(S(=O)(=O)N2CCCCC2COCC(=O)N2CCN(C3CCN(C)CC3)CC2)c(C)s1 (stereo not drawn) [Example 172] as well.
101

Repeat for the following compound: CN(C(=O)COCC1Cc2ccccc2CN1S(=O)(=O)c1ccc(Cl)cc1Cl)C1CCN(Cc2ccccc2)C1 (stereo not drawn) [Example 78]
45.7

Same question, O=C(COCC1CCCCN1S(=O)(=O)c1c(Cl)cccc1Cl)N1CCN(c2ccc(C(F)(F)F)cc2)CC1 (stereo not drawn) [Example 550] this time
57.8

Cool, now COc1cc(C)c(S(=O)(=O)N2CCCC2COCC(=O)NC(CN2CCCC2)c2ccccc2)c(C)c1 (stereo not drawn) [Example 505]
74

COc1cc(C)c(S(=O)(=O)N2CCCCC2COCC(=O)N2CCC(COc3ccncc3)CC2)c(C)c1 (stereo not drawn) [Example 188] ?
102

Similarly, COc1cc(C)c(S(=O)(=O)N2CCCC2COCC(=O)N2CCCCCC2c2ccc(N(C)C)cc2)c(C)c1 (stereo not drawn) [Example 475] ?
90.4

Can you handle COc1cc(C)c(S(=O)(=O)N2CCCCC2COCC(=O)NCc2ccc(CN3CCN(C)CC3)cc2)c(C)c1 (stereo not drawn) [Example 7] next?
102

Ok, now COc1cc(C)c(S(=O)(=O)N2CCCC2COCC(=O)N2CCN(c3ccc(Cl)c(Cl)c3)CC2)c(C)c1 (stereo not drawn) [Example 348]
87.1

Also COc1cc(C)c(S(=O)(=O)N2CCCCC2COCC(=O)NCc2ccccc2N2CCCCC2)c(C)c1 (stereo not drawn) [Example 428] , if possible.
23.8

Continue with COc1cc(C)c(S(=O)(=O)N2CCCC2COCC(=O)Nc2ccc(N3CCOCC3)c(Cl)c2)c(C)c1 (stereo not drawn) [Example 493]
40.6

Consider next the compound CCN(Cc1ccncc1)C(=O)COCC1CCCCN1S(=O)(=O)c1c(C)cc(OC)cc1C (stereo not drawn) [Example 510] in the same way.
51.4

Next compound up: CCc1ccc(CC2CCCCN2C(=O)COCC2CCCCN2S(=O)(=O)c2c(C)cc(C)cc2C)nc1 (stereo not drawn) [Example 228]
88.6

Now consider O=C(COCC1CCCN1S(=O)(=O)c1c(Cl)cccc1Cl)N1CCN(c2ccc(Cl)c(Cl)c2)CC1 (stereo not drawn) [Example 356] .
43
